# TEST_NAME: Pharmacokinetic study in rats, LC-MS/MS of plasma
# Format: in vivo, Wistar rats
# CONDITIONS_USED: male, Wistar, rat, plasma, po, 20 mg/kg, 20 mg/kg oral, read-out: AUC0-t
OUTCOME_MEASURE: AUC0-t (ng·h/mL)
Give the value, in units of ng·h/mL, as a plain number.

Input: Any idea what AUC0-t was measured for CCc1cc2c(cc1N1CCC(N3CCOCC3)CC1)C(C)(C)c1[nH]c3cc(C#N)ccc3c1C2=O.Cl [Alectinib] ?
Output: 9840

----------
# TEST_NAME: Pharmacokinetic study in rats, LC-MS/MS of plasma
# Format: in vivo, Wistar rats
# CONDITIONS_USED: male, Wistar, plasma; rat, 20 mg/kg oral
OUTCOME_MEASURE: k el (s⁻¹)
Give the value, in units of s⁻¹, as a plain number.

Input: Any idea what k el was measured for CCc1cc2c(cc1N1CCC(N3CCOCC3)CC1)C(C)(C)c1[nH]c3cc(C#N)ccc3c1C2=O.Cl ?
Output: 1.25e-05

Values compiled from paper PMC12389006.
